# Experiment notes: folding enthalpy; higher = less favourable; fluorescence melt of hairpins on a sequencing array, two-state fit
# Condition: sodium 0.088 M
Value kind: folding enthalpy (kcal/mol)
Supply the numeric figure in kcal/mol, leaving out any unit text.

As a guide, the following entries are already answered.
# Sequence text, Value kind, Unit of measurement, Numeric value
rows = [
    ("GCGATGGATCGC ((((....))))", "folding enthalpy", "kcal/mol", -22.8),
    ("GCCAATACGAAAGTAGGC (((..(((....))))))", "folding enthalpy", "kcal/mol", -25.6),
    ("GCCAGGCGAAAGCTCGGC (((..((....))..)))", "folding enthalpy", "kcal/mol", -38.4),
    ("GCGTACGGAAACGTACAC (.(((((....))))).)", "folding enthalpy", "kcal/mol", -15.1),
    ("GTTCTGCGAAAGCAAAC (((.(((....))))))", "folding enthalpy", "kcal/mol", -13.5),
]

Need folding enthalpy, item GCTGTGCGAAAGCGTAGC (((..((....))..)))
-17.6

Where do the numbers come from? From the array DNA melting data of Ke et al. (doi:10.1101/2024.01.08.574731).
